target: mouse ENT-1 transporter (Mus musculus, UniProt Q9JIM1); experiment: Adenosine transport activity (ENT1, [3H]-adenosine uptake inhibition); details: stable cells expressing mouse ENT-1; [2,8-3H]-adenosine 6 nM, 20 min
Sequence (Q9JIM1 whole entry): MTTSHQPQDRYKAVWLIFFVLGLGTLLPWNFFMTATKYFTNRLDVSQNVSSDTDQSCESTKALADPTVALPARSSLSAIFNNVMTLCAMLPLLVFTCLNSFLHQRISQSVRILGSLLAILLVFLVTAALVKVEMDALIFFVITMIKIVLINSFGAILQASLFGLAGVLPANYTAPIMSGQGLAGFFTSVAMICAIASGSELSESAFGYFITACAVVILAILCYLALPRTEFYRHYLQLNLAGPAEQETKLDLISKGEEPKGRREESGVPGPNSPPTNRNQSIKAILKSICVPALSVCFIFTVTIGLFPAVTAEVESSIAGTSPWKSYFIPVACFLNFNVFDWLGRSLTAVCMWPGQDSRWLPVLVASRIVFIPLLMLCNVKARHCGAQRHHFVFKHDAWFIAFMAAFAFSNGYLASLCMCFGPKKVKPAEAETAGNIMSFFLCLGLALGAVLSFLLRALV
Reported values of pIC50 for individual entries
Quick note: pIC50 values are minus log10 of concentrations in mol/L.

Use the examples below as a reference point.
| GIVEN_SMILES | MEAS_VALUE |
| --- | --- |
| Cc1ncc(-c2ccc3c(c2)N(c2nccc(N4CCOCC4)n2)C(=O)C3(C)C)cn1 | 6.49 |
| Cc1ncc(-c2ccc3c(c2)N(c2cncc4[nH]ccc24)C(=O)C3(C)C)cn1 | 6.08 |
| Cc1ncc(-c2ccc3c(c2)N(c2cncc(NC4CC4)n2)C(=O)C3(C)C)cn1 | 7.40 |

Request: Short answer please: pIC50, mouse ENT-1 transporter (Mus musculus, UniProt Q9JIM1), entry `Cc1ncc(-c2ccc3c(c2)N(c2cncc(N)c2)C(=O)C3(C)C)cn1`
Response: 6.33
